system: LXFL 529; assay: NCI tumour cell line growth inhibition, 48 h
Activity calls are given as the source filed them. Cut-off read from the data, not from the text of the source: active = GI50 up to about 1.1 µM and inactive = higher.
outcome measure: GI50

compound="COc1ccc(/C(C#N)=C2/O/C(=N/N)C(c3ccc(OC)c(OC)c3)C2=O)cc1OC (stereo not drawn)" observed_result="> 100 µM (inactive)"
compound=COc1ccc(-c2cc3[nH]nc(N)c3c(=O)o2)cc1 observed_result="> 100 µM (inactive)"
compound=CCCCCCCCCCCCCP(=O)(O)NCC(N)=O observed_result="54.3 µM (inactive)"
compound="S=C1NC(c2ccccc2)=NC(Cc2ccccc2)(c2ccccc2)N1c1ccccc1 (stereo not drawn)" observed_result="> 100 µM (inactive)"
compound=O=C(Nc1ccc(Sc2ccc(/N=N/c3c(O)c(S(=O)(=O)O)cc4cc(S(=O)(=O)O)ccc34)cc2)cc1)c1ccc(/N=N/c2c(O)c(S(=O)(=O)O)cc3cc(S(=O)(=O)O)ccc23)cc1 observed_result="18.1 µM (inactive)"
compound=[N-]=[N+]=NC12CC3C4CC5CC3C(C1)C(C5)C4C2 observed_result="> 100 µM (inactive)"
compound=COc1ccc(/C=N/NC(=O)NCCNCCO)cc1 observed_result="> 100 µM (inactive)"
compound=CCOc1ccc(NC(=O)C(=O)CC(=O)c2sc(NNC(C)=O)nc2C)cc1 observed_result="> 100 µM (inactive)"

Values were extracted from ChEMBL document CHEMBL1201862.
